target: Hck (UniProt P08631); experiment: phosphorylation enrichment, bacterial display (enrichment ratio); higher = better substrate or ligand; peptides without Tyr show the background
Sequence (P08631 whole entry, looked up): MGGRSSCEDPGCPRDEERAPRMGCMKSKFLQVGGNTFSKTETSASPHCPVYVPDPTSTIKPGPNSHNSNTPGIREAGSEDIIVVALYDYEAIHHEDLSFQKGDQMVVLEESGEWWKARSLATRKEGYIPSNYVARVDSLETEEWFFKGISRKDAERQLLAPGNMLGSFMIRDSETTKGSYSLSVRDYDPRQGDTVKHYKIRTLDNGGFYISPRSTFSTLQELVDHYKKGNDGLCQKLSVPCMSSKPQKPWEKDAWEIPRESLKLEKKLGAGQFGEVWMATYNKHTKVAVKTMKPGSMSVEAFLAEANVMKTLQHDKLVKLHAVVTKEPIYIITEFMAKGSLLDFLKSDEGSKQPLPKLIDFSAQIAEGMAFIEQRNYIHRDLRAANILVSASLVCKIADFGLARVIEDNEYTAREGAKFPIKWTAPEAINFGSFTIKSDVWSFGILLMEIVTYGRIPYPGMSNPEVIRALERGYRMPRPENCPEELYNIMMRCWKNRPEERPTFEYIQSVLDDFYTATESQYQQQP
experimental.readout: phosphorylation enrichment
One number for each entry.

MSNVPYVMNRG [ACAT1_Y161]
0.399
TSPKSCPSQKH [CAP2_Y316_Y316C]
0.472
NIRKKYFRAIL [CHD7_Y1217_Q1214R_YF]
0.451

Each sequence below has a reported value. Please supply its phosphorylation enrichment.
1. RREWYYEVIIV [BACE1_Y260]
2. IHFAIYLLKYS [ARMC9_Y107]
3. LKEIHYPPYTD [ALDH3B2_Y362]
4. SEKIVYGHLDD [ACO2_Y71]

// result
[0.718, 0.463, 0.929, 0.639]

For each of the items listed, what is its phosphorylation enrichment?
1. QIGRKYKKVRF [F8_Y442_R437Q]
2. FTRNYYVQAVL [CYBA_Y88_R90Q]
3. NVADHYRVYKP [ATP6V0D2_Y271_G272R]
4. IDQDKYAVHFI [FLNA_Y2388_R2391H]
5. RRSQSYNPTSG [PLEKHA2_Y185_I186N]

// result
1. 1.19
2. 0.521
3. 0.384
4. 0.467
5. 0.821

Quick request: phosphorylation enrichment for each listed item, please.
1. VSLEAYCKHKY [RXRA_Y403_A398V]
2. SEELHYYVQNH [UQCRC2_Y207_F208Y]
3. STKPQYQPGEN [SRC_Y530_E527K]
4. AGNPAYRSFSN [IL4R_Y497]

// result
1: 0.579; 2: 0.732; 3: 0.361; 4: 0.424

Items follow; give phosphorylation enrichment for each.
1. REGAKYVSHGA [ASS1_Y113]
2. KNSSIYVVANI [VNN1_Y134_N131S]
3. REVPVYTFSEP [FAM120B_Y368_D370Y_YF]
4. RKQQLYIAMEE [CCDC39_Y593_T594I]

// result
1: 0.399; 2: 0.662; 3: 4.36; 4: 0.431

====

biological target: EPHB2 (UniProt P29323); test: phosphorylation enrichment, bacterial display (enrichment ratio); higher = better substrate or ligand; peptides without Tyr show the background
Sequence (P29323 whole entry, looked up): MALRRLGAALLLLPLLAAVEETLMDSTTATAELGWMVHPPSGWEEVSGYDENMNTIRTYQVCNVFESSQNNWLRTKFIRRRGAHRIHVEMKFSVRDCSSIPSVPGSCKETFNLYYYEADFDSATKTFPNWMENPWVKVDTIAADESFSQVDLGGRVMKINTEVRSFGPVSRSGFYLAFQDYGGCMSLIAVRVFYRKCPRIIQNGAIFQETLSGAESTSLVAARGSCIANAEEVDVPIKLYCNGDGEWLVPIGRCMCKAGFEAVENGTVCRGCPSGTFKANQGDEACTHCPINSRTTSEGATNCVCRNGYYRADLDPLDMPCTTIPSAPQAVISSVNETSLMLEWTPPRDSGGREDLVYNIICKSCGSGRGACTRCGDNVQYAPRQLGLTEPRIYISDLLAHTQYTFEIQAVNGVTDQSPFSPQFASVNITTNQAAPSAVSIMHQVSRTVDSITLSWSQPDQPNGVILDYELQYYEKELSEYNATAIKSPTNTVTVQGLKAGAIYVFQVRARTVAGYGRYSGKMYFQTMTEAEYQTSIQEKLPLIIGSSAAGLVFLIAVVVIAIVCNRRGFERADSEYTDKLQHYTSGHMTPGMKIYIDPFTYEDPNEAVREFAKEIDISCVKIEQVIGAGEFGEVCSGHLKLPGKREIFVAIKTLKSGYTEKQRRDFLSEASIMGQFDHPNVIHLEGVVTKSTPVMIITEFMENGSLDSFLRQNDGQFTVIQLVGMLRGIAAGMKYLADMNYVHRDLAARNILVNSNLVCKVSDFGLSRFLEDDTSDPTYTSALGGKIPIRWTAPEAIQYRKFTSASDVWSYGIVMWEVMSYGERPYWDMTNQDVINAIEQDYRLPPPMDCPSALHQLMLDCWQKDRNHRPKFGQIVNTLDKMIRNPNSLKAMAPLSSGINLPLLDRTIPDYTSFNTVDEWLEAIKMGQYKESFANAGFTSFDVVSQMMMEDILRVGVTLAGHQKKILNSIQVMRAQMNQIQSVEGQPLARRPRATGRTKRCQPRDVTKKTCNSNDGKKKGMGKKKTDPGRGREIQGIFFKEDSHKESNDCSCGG
Short version: phosphorylation enrichment at least 0.6 is 1.0, less is 0.0.

RLTEGYTGPFK [ZNF862_Y181_I178T]
0.0

// query Say whether RPSELYFSKIS [SMG1_Y2253_G2258S_YF] shows phosphorylation enrichment of 0.6 or more.
// result 1.0

// query Continue with DTKPAYQNLRQ [BOD1_Y82]
// result 0.0

// query Next sequence: FRDMDYRSFPH [RBM10_Y41_R46H_YF]
// result 0.0

// query Lookup QADVVYVNTQL [MERTK_Y872_I871V]
// result 1.0

// query Can you handle LQEQNYPAVDS [FAM114A1_Y115_L116P] next?
// result 1.0

====

biological target: SHP2-C SH2; experiment: SH2 binding enrichment of the phosphorylated peptide, bacterial display (enrichment ratio); higher = better substrate or ligand; peptides without Tyr show the background;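 note: peptide library displayed on the E. coli surface as eCPX fusions, selected cells deep-sequenced, score is each peptide's frequency after selection divided by its frequency in the input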
Short version: SH2 binding enrichment at least 0.7 is Satisfied, less is Not satisfied.

Check out these entries, answers already filled in.
EEHIPYTHMNG [INSR_Y1361]
Satisfied
SKDSAYVTWEP
Satisfied
KSAAIYNPVIY [RHO_Y301]
Not satisfied
DHAGTYGLGDR [MAPT_Y18]
Satisfied
PEADKYCLTYA [FGG_Y300_R301C]
Satisfied

// query State whether the measured SH2 binding enrichment reaches 0.7, counting equality as reaching it, for VRFMANTDETF [F8_Y450_Y450N]
// result Satisfied

// query Same for ILDEAYVMASM [EGFR_Y764_V769M]
// result Not satisfied

// query // same read-out, input: EKRDAYVSRLN [GSR_Y150]
// result Not satisfied

// query Continue with GLVFLYMEKNQ [PRELP_Y156]
// result Satisfied

// query Also KVALVYGQMNE [ATP5F1B_Y269] ?
// result Satisfied

// query Also, KLSFSYGWALQ [ALDOB_Y302_R304W] please.
// result Not satisfied

// query What do you have for SENAFYLSPHI [COL6A3_Y2827_D2831H] ?
// result Not satisfied

====

Give phosphorylation enrichment for every item shown.
molecular target: Fes (UniProt P07332); assay: phosphorylation enrichment, bacterial display (enrichment ratio); higher = better substrate or ligand; peptides without Tyr show the background
Sequence (P07332 whole entry, looked up): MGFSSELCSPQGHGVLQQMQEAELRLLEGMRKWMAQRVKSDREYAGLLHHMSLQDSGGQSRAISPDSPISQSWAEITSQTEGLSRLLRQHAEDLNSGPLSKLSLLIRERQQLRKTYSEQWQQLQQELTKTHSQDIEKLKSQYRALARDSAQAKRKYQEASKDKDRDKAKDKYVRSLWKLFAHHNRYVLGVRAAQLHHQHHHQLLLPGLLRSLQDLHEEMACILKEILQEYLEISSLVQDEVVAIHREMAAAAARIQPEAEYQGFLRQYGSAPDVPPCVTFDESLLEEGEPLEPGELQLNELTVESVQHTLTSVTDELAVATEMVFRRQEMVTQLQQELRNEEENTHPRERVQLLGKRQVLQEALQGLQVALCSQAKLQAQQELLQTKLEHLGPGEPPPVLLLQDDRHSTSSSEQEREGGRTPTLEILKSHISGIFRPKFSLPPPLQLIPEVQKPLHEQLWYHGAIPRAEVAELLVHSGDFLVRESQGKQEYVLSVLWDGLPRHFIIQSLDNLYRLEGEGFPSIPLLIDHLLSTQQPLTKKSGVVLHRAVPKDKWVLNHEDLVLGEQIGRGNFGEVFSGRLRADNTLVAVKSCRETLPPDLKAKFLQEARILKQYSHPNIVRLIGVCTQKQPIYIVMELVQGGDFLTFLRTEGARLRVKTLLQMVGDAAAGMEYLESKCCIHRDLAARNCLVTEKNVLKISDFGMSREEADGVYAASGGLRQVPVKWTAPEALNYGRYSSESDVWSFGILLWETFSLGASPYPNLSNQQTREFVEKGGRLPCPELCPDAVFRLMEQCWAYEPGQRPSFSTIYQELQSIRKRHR
Numbers only.

Please review the entries below; each comes with its answer.
RRIHSYRGHVW [VHL_Y112_L116V]
0.99
SGVSYYINLCQ [IGF2R_Y2025_N2020S]
1.5
AGQERYRAITS [RAB11B_Y73]
0.627

Your task in this section: give phosphorylation enrichment for each listed record.
1. NTYEKYLEEEY [TF_Y669_G671E]
2. ANVKWYRNGRE
3. FFCRWYRNRKS [EREG_Y144_YF]

// result
1. 1.93
2. 0.738
3. 0.453

====

molecular target: Jak2 (UniProt O60674); test: phosphorylation enrichment, bacterial display (enrichment ratio); higher = better substrate or ligand; peptides without Tyr show the background
Sequence (O60674 whole entry, looked up): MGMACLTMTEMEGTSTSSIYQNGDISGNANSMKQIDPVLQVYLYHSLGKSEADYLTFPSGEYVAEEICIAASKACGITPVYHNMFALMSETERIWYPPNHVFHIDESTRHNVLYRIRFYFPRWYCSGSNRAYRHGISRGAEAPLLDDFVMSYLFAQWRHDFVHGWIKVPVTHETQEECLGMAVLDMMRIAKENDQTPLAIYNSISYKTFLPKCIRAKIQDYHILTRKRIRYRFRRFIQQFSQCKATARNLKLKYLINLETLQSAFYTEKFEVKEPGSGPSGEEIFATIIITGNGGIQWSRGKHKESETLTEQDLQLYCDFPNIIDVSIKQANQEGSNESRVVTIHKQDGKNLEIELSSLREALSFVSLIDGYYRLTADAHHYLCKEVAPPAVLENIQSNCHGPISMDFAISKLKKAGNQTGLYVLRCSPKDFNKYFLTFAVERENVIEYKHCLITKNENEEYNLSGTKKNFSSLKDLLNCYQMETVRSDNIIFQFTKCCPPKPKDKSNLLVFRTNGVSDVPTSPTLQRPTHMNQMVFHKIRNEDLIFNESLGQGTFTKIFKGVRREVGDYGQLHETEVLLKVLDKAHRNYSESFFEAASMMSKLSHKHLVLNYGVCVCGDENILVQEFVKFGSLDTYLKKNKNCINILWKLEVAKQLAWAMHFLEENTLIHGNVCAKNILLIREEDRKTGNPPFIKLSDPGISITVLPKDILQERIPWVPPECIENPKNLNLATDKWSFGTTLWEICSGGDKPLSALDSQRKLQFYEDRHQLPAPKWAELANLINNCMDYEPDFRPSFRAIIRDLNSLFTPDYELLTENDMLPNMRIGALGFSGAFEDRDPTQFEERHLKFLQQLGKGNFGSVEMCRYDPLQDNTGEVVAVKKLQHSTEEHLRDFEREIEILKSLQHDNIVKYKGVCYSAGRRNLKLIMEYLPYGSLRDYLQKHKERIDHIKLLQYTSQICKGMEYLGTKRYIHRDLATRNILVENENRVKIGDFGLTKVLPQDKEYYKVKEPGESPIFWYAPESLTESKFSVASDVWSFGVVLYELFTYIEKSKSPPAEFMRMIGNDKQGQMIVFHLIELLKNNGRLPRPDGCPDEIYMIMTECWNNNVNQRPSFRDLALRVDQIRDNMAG
For each entry below, report its phosphorylation enrichment value.
Give bare numbers.

Please review the entries below; each comes with its answer.
FGEFRYRSVIK [CFTR_Y517_D513G_YF]
0.744
EGTATYAAAIL [JUP_Y644_V648I]
0.795
GVLDIYGFEIL [MYO1A_Y382]
0.978
AGGTRYRYVSQ [UCN3_Y95_R91G]
0.417
SGETEYNPTEA [NBEAL2_Y2748]
1.26

# return phosphorylation enrichment for each item in the list
1. KRLAVYIDEEA [EPM2A_Y304_P301L]
2. SVTCTYSPALD [TP53_Y126_N131D]

// result
1: 1.23; 2: 1.51

Respectfully, I request phosphorylation enrichment for each entry included below.
1. KEDPEYKKKFR [FAM161A_Y278_E273K]
2. AAGGRYDGLVG [HARS1_Y363]
3. TDDMRYPMKSE [TGDS_Y302_N298D]
4. CTTIHYNYMCH [TP53_Y234_N239H]

// result
[1.02, 0.489, 0.694, 0.672]

Parameter requested: phosphorylation enrichment. Apply to each item below.
1. DASAVYLRDFQ [PLCG2_Y242_H244R]
2. KNSSIYVVANI [VNN1_Y134_N131S]
3. TLKVGYTEKQR [EPHA3_Y659]

// result
0.894
1.31
0.407

====

system: c-Abl (mouse); experiment: phosphorylation enrichment, bacterial display (enrichment ratio); higher = better substrate or ligand; peptides without Tyr show the background
Everything with phosphorylation enrichment lower than 0.7 is Condition not met; everything else, including exactly 0.7, is Condition met.

Previously resolved entries follow.
RRSQSYNPTSG [PLEKHA2_Y185_I186N]
Condition met
ESKKHYGFSLF [ANXA3_Y295_F291S_YF]
Condition not met
DFPIGYPSFLA [TBCK_Y153_YF]
Condition not met
VEDHFYEGGIG [TKT_Y564_YF]
Condition met
KSEMSYIDGEK [SORBS1_Y485]
Condition not met

// query Could you please find out whether KAEELYIGVTV [EFHC2_Y509] has phosphorylation enrichment that meets 0.7 or exceeds it?
// result Condition met

// query Check RKELFYKADGE [SERPINC1_Y272] too.
// result Condition met

// query Follow-up entry: PSAELYSFALP [PDGFRB_Y716_N718Y_YF]
// result Condition met

// query Then this sequence: QCTSAYPLQPE [NANS_Y188]
// result Condition met

// query Another sequence to look at: SEELHYYVQNH [UQCRC2_Y207_F208Y]
// result Condition met

// query Also NPQKSYFIRLY [WAS_Y83] , if possible.
// result Condition met

// query Now the same for MPLTKYLKRIK [CNGB3_Y200_E199K]
// result Condition not met

// query Another sequence to check: LKEIHYPPYTD [ALDH3B2_Y362]
// result Condition met

// query What would you report for SILTVYSKDNF [PANK2_Y400_A398T_YF] ?
// result Condition not met

====

target: EPHB1 (UniProt P54762); test: phosphorylation enrichment, bacterial display (enrichment ratio); higher = better substrate or ligand; peptides without Tyr show the background
Sequence (P54762 whole entry, looked up): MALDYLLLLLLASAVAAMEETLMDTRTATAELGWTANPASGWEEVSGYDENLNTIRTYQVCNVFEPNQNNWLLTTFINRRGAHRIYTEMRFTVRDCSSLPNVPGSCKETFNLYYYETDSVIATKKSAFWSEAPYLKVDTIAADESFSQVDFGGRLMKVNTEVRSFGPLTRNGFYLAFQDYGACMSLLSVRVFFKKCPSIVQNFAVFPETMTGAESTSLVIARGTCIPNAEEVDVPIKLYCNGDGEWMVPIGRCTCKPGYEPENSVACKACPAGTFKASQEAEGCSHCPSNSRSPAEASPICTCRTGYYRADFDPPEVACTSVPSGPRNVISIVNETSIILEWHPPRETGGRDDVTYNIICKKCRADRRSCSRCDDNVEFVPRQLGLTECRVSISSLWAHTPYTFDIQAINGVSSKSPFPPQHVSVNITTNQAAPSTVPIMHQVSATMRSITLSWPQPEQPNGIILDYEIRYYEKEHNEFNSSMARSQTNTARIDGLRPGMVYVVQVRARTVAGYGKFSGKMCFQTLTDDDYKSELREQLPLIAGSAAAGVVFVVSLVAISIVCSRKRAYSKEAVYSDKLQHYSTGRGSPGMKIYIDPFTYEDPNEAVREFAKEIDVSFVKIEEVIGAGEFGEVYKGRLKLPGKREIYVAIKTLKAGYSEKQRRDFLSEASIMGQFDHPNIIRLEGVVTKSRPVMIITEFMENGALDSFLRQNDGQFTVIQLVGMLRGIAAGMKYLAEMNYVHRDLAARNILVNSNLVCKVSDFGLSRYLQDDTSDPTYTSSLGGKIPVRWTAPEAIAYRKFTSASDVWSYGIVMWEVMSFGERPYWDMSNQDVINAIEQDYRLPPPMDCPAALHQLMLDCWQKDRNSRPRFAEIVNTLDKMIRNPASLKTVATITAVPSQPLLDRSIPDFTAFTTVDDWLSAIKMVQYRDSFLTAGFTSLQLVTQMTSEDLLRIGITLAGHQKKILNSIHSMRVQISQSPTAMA
The following ranges of phosphorylation enrichment define the classes used here: low group (below 0.6), middle group (0.6 to below 1), high group (1 or more)

For orientation, consider the following solved cases.
HLQDEYDFKCK [STAT1_Y170_D165H]
middle group
TSNQEYLFLSM [FGFR1_Y766_D768Y_YF]
middle group
LANNEYYFQVC
high group

// query Bin this entry: AVEDQYFCVDC [FHL1_Y207_YF]
// result high group

// query Please do the same for SDQRRYSLIDR [CLIP2_Y972] as well.
// result low group

// query // same read-out, input: PPAPRCHHSAV [LZTR1_Y119_Y119C]
// result high group

// query // query: PDGVEYLKNDP [GRIN3A_Y831]
// result middle group

// query Try this sequence too: SVTCTYSPALD [TP53_Y126_N131D]
// result middle group

// query Now give it for ALDHKYHGGGG [HBB_Y146_A143D] too.
// result low group
